Target: human M2 receptor (Homo sapiens, UniProt P08172)
Sequence (P08172 1-466): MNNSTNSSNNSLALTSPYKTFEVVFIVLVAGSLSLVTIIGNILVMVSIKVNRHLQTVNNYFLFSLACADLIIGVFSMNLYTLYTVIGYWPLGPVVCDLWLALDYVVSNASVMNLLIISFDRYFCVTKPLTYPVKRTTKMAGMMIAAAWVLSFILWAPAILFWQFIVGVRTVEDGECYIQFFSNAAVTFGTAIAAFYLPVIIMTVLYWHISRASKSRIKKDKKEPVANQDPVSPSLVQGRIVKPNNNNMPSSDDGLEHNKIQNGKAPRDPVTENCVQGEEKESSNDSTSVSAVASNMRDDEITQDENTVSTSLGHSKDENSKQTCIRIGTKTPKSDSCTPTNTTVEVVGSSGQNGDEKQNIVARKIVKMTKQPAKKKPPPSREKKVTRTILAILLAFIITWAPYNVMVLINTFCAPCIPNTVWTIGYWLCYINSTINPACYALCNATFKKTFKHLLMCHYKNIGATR
Type: cell-based
Settings: shift in the acetylcholine dose-response curve (Allosteric EC50 shift, GraphPad PRISM); α >1 = positive cooperativity
Binary classification by Cooperativity (alpha factor), with 10 as an inclusive lower bound for Condition met; all other cases are Condition not met.

Would you please look over these solved cases?
>  <molecule>
CC(NC(=O)c1cn(-c2ccc(F)cc2F)c2nc(N3C[C@@H](O)CC3=O)ccc2c1=O)c1c(F)cccc1F (single isomer, unassigned) [Example 216]

>  <group>
Condition met

$$$$
>  <molecule>
C[C@H](NC(=O)c1cn(-c2c(F)cc(F)cc2Cl)c2nc(N3CCC(C)(C)C3=O)ccc2c1=O)C(F)(F)F [Example 335]

>  <group>
Condition not met

$$$$
>  <molecule>
CN(C)c1ccc2c(=O)c(C(=O)NCc3ccccc3C(F)(F)F)cn(-c3ccc(F)cc3F)c2n1 [Example 59]

>  <group>
Condition met

$$$$
>  <molecule>
CC[C@@H](NC(=O)c1cn(-c2ccc(F)cc2F)c2nc(N3CCC(C)(OC)C3=O)ccc2c1=O)C(F)(F)F (single isomer, unassigned) [Example 199]

>  <group>
Condition met

$$$$

// switching to the query molecule
Prompt: Evaluate CC[C@@H](NC(=O)c1cn(-c2c(F)cc(F)cc2F)c2nc(N3CCC(O)C3=O)ccc2c1=O)C(F)(F)F (mixture of isomers) [Example 280] : Cooperativity (alpha factor) at minimum 10?
Completion: Condition met

---

For each of the molecules below, state its pEC50.
molecular target: human M2 receptor (Homo sapiens); conditions: Receptor activity EC50, M2-GIRK1/4 activation test, acetylcholine at EC20; allosteric potency; in some cases mean values from two or more determinations
Numbers only, as −log10 of the molar value.

The following molecules have reported results that may help.
>  <molecule>
O=C(NC(c1ccccc1Cl)C(F)(F)F)c1cn(-c2ccccc2F)c2nc(N3CCC(O)C3=O)ccc2c1=O (single isomer, unassigned) [Example 288]

>  <measured property>
pEC50

>  <endpoint result>
7.40

$$$$
>  <molecule>
CC(COC(F)(F)F)NC(=O)c1cn(-c2ccc(F)cc2F)c2nc(N3CC[C@H](F)C3)ccc2c1=O (single isomer, unassigned) [Example 229]

>  <measured property>
pEC50

>  <endpoint result>
7.28

$$$$
>  <molecule>
CN(C)c1ccc2c(=O)c(C(=O)NC3(C)CCCCC3)cn(-c3ccc(F)cc3Cl)c2n1 [Example 156]

>  <measured property>
pEC50

>  <endpoint result>
7.07

$$$$
>  <molecule>
CC[C@@H](NC(=O)c1cn(-c2c(F)cccc2Cl)c2nc(N3CC[C@@H](O)C3=O)ccc2c1=O)C(F)(F)F [Example 308]

>  <measured property>
pEC50

>  <endpoint result>
7.52

$$$$
>  <molecule>
O=C(NC12CC3CC(CC(C3)C1)C2)c1cn(-c2ccc(F)cc2F)c2nc(N3CCC(O)(O)C(F)(F)C3)ccc2c1=O [Example 6]

>  <measured property>
pEC50

>  <endpoint result>
7.47

$$$$

Prompt: GET /values?readout=pEC50&item= O=C(NC12CC3CC(CC(C3)C1)C2)c1cn(-c2ccc(F)cc2F)c2nc(N3CCCCC3=O)ccc2c1=O [Example 165]
Completion: 7.96
